Assignment: determine reported pIC50 for the given compounds.
# measured.on: human FASN (Homo sapiens, UniProt P49327)
# Construct: was purified from SKBR3 cells using procedures modified from those in Jayakumar et al; endogenous in cells; host or cells: SKBR3 human breast cancer cells (ATCC); Endogenous enzyme purified by ammonium sulfate precipitation and a mono Q column
# Sequence (P49327 whole entry): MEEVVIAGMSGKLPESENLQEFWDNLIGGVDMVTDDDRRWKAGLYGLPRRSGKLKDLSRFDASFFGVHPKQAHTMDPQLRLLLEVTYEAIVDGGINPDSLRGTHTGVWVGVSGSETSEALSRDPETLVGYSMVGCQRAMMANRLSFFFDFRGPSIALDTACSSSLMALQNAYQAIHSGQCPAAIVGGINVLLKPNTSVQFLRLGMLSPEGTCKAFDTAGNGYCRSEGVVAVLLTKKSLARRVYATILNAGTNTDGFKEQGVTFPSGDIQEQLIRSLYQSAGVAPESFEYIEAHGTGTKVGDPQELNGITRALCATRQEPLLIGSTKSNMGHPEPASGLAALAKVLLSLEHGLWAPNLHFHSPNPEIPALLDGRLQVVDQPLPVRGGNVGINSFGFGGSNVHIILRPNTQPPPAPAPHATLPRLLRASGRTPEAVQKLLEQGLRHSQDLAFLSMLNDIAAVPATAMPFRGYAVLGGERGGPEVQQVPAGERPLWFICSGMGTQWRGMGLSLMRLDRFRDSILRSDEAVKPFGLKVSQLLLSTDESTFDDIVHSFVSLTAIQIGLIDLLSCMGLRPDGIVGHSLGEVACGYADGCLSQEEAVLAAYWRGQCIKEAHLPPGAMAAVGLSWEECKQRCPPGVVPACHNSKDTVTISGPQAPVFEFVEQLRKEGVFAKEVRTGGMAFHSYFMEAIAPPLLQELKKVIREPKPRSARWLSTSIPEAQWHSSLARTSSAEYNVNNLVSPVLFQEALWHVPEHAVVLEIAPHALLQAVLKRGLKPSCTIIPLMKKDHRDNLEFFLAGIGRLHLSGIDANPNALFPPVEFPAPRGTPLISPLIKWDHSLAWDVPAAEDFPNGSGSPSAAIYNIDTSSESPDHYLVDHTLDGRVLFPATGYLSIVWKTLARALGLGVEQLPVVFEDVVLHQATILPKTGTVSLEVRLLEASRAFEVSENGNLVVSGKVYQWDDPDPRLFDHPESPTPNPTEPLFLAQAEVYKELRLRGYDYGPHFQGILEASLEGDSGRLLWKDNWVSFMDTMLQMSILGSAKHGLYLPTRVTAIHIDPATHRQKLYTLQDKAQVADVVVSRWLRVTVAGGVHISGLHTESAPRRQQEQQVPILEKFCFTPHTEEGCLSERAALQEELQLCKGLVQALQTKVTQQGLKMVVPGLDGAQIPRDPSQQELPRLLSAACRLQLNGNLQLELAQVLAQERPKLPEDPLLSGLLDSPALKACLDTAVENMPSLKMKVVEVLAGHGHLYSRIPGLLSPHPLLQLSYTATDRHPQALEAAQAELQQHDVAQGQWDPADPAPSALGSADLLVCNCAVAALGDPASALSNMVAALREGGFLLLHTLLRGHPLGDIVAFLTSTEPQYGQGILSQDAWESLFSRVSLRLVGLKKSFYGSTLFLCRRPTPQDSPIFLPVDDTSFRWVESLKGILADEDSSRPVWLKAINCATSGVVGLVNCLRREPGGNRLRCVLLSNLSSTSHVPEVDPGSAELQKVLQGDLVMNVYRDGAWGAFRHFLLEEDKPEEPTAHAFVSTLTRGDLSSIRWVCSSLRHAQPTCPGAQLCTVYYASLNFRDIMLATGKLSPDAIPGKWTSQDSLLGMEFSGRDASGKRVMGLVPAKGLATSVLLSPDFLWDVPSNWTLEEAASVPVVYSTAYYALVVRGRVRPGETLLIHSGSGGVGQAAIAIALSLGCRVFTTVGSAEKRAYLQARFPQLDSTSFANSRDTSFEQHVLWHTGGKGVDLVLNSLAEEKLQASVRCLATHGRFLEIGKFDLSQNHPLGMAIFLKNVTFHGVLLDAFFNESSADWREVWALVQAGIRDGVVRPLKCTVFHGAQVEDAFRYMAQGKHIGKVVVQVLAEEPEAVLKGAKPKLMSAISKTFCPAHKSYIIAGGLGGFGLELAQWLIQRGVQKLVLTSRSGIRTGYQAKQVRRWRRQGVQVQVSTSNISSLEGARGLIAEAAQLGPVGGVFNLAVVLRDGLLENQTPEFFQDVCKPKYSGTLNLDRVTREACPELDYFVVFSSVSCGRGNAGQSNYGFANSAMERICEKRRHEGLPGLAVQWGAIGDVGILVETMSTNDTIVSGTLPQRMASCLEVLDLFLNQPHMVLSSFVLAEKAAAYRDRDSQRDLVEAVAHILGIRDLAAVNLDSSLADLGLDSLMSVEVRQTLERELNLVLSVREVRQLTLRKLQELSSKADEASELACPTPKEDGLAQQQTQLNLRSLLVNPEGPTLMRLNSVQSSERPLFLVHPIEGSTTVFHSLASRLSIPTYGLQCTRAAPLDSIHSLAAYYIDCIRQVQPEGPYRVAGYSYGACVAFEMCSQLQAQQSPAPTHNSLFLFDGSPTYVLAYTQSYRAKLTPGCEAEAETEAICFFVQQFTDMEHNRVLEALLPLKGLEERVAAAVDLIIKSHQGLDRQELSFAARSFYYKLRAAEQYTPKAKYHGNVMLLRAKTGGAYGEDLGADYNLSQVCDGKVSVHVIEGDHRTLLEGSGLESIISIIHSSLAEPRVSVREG
# procedure.details: FASN Scintillation Proximity Flashplate Assay
# Assay type: biochemical
# cond: human FASN purified from SKBR3 cells; unstarred symbols
# Protocol: Human FASN protein (SEQ ID NO. 1) was purified from SKBR3 cells using procedures modified from those in Jayakumar et al. PNAS 1995, 92:8695-8699. SKBR3 cells were obtained from ATCC and grown in DMEM high glucose medium supplemented with 10% FBS, 1 μg/mL bovine pancreas insulin, 100 U/mL penicillin and 100 µg/mL streptomycin. […] Each fraction was analyzed by SDS-PAGE and FASN NADPH consumption assay. […]
pIC50: −log10 of the molar value.

CCN(C(=O)n1nnn(-c2ccccc2Oc2ccccc2)c1=O)c1ccc(C(=O)O)cc1 : > 7.82
COc1ccc(N(C(=O)n2nnn(-c3c(F)cccc3F)c2=O)C2CCCCC2)c(OC)c1C(=O)O : 7.00 to 7.82
CCN(C(=O)n1nnn(-c2c(F)cccc2C(=O)N2CCCCC2)c1=O)c1ccccc1Oc1ccccc1 : 6.70 to 7.00
COCCOCOc1ccc(N(C(=O)n2nnn(-c3c(F)cccc3F)c2=O)C2CCCCC2)cc1C(=O)OCc1ccccc1 : > 7.82

Could I get pIC50 for every one of these entries?
1. COc1ccc(C(=O)OCc2ccccc2)cc1N(C(=O)n1nnn(-c2c(F)cccc2OC)c1=O)C(C)C
2. CC(C)N(C(=O)n1nnn(-c2c(F)cccc2F)c1=O)c1ccc(N)c(C(=O)OCc2ccccc2)c1

-- reply
["7.00 to 7.82", "> 7.82"]

----------
For each record, write down the corresponding IC50.
# measured.on: human FASN (Homo sapiens, UniProt P49327)
# Construct: was purified from SKBR3 cells using procedures modified from those in Jayakumar et al; endogenous in cells; host or cells: SKBR3 human breast cancer cells (ATCC); Endogenous enzyme purified by ammonium sulfate precipitation and a mono Q column
# procedure.details: FASN NADPH Consumption Assay
# Assay type: biochemical
# cond: human FASN purified from SKBR3 cells; starred symbols

Here's what some known entries look like.
CC(C)N(C(=O)n1nnn(-c2c(Cl)cccc2Cl)c1=O)c1ccccc1 : 250 to 1000 nM
O=C(N1CCc2ccccc2C1)n1nnn(-c2c(F)cccc2F)c1=O : 250 to 1000 nM
C=CCN(C(=O)n1nnn(-c2ccccc2Cl)c1=O)c1ccccc1 : 60 to 250 nM

Field: IC50. Fill in for each record below.
1. CCCCOc1ccccc1N(CC)C(=O)n1nnn(-c2c(F)cccc2OC)c1=O
2. CCN(C(=O)n1nnn(-c2c(Cl)cccc2Cl)c1=O)c1ccccc1F
3. CC1CCc2ccccc2N1C(=O)n1nnn(-c2c(F)cccc2F)c1=O (stereo not drawn)
4. CS(=O)(=O)NCCCN(C(=O)n1nnn(-c2c(Cl)cccc2Cl)c1=O)C1CCCCC1
5. CCN(C(=O)n1nnn(-c2c(Cl)cccc2Cl)c1=O)c1cccc(CO[Si](C)(C)C(C)(C)C)c1
6. CCN(C(=O)n1nnn(-c2ccccc2Oc2ccccc2)c1=O)c1ccccc1F
7. CC(C)(C)OC(=O)Nc1cccc2c1CCCN2C(=O)n1nnn(-c2c(F)cccc2F)c1=O

-- reply
1: 250 to 1000 nM; 2: 60 to 250 nM; 3: 60 to 250 nM; 4: 1000 to 10000 nM; 5: 60 to 250 nM; 6: 60 to 250 nM; 7: 60 to 250 nM

The following molecules each have a reported value; give each one's IC50.
1. CCN(C(=O)n1nnn(-c2c(Cl)cccc2Cl)c1=O)C1CCC(N(C)C)CC1 (stereo not drawn)
2. Nc1ccc2c(c1)CCCN2C(=O)n1nnn(-c2c(F)cccc2F)c1=O
3. COc1cccc(N(C)C(=O)n2nnn(-c3c(F)cccc3F)c2=O)c1
4. CCN(C(=O)n1nnn(-c2c(Cl)cccc2Cl)c1=O)c1ccc(C(=O)OCc2ccc(OC)cc2)cc1Cl
5. COc1cccc(F)c1-n1nnn(C(=O)N(C2CCCCC2)C2CCCCC2)c1=O

-- reply
> 10000 nM
60 to 250 nM
60 to 250 nM
60 to 250 nM
1000 to 10000 nM

// batch mode: one IC50 value per listed entry
1. CNC(=O)[C@@H]1CCCN1C(=O)n1nnn(-c2c(Cl)cccc2Cl)c1=O
2. CCN(C(=O)n1nnn(-c2ccc(Cl)cc2)c1=O)C1CCCCC1
3. CCN(C(=O)n1nnn(-c2c(F)cccc2F)c1=O)C1CCCCC1
4. CN(C(=O)n1nnn(-c2c(F)cccc2F)c1=O)c1ccccc1F

-- reply
> 10000 nM
> 10000 nM
250 to 1000 nM
60 to 250 nM

Below are some molecules; for each one, tell me its IC50.
1. CCN(C(=O)n1nnn(-c2c(Cl)cccc2Cl)c1=O)C1CCN(S(C)(=O)=O)CC1
2. CCN(C(=O)n1nnn(-c2c(C)noc2C)c1=O)C1CCCCC1

-- reply
1: 1000 to 10000 nM; 2: > 10000 nM

----------
Can you tell me pIC50 for the items I'm about to list?
# measured.on: human FASN (Homo sapiens, UniProt P49327)
# Construct: was purified from SKBR3 cells using procedures modified from those in Jayakumar et al; endogenous in cells; host or cells: SKBR3 human breast cancer cells (ATCC); Endogenous enzyme purified by ammonium sulfate precipitation and a mono Q column
# procedure.details: FASN NADPH Consumption Assay
# Format: biochemical
# cond: human FASN purified from SKBR3 cells; starred symbols
pIC50: −log10 of the molar value.

Sample answers from the record:
CCN(C(=O)n1nnn(-c2c(Cl)cccc2Cl)c1=O)c1ccc(C(=O)OCc2ccccc2)c(Cl)c1 : 6.60 to 7.22
CCN(C(=O)n1nnn(-c2c(F)cccc2F)c1=O)c1ccc(Br)cc1F : 6.60 to 7.22
CN1C2CCC1CC(N(CCc1ccccc1)C(=O)n1nnn(-c3c(Cl)cccc3Cl)c1=O)C2 (stereo not drawn) : < 5.00
CCN(CC)C(=O)n1nnn(-c2ccccc2Cl)c1=O : 5.00 to 6.00
CCN(C(=O)n1nnn(-c2ccccc2OC)c1=O)c1cccc(C(=O)O)c1OC : 6.00 to 6.60
COC(=O)C1CCc2ccccc2N1C(=O)n1nnn(-c2c(F)cccc2F)c1=O (stereo not drawn) : 6.60 to 7.22

Your task in this section: give pIC50 for each listed record.
1. CCN(C(=O)n1nnn(-c2c(Cl)cccc2Cl)c1=O)C1CCCN(S(C)(=O)=O)C1 (stereo not drawn)
2. CCN(C(=O)n1nnn(-c2ccccc2-c2ccccc2)c1=O)c1ccccc1F
3. CCN(C(=O)n1nnn(-c2ccc(C(F)(F)F)cc2Cl)c1=O)C1CCCCC1
4. O=C(O)c1ccc2c(c1)CCCN2C(=O)n1nnn(-c2ccccc2)c1=O

-- reply
1. 5.00 to 6.00
2. 6.60 to 7.22
3. < 5.00
4. 6.60 to 7.22

----------
# measured.on: human FASN (Homo sapiens, UniProt P49327)
# Construct: was purified from SKBR3 cells using procedures modified from those in Jayakumar et al; endogenous in cells; host or cells: SKBR3 human breast cancer cells (ATCC); Endogenous enzyme purified by ammonium sulfate precipitation and a mono Q column
# procedure.details: FASN NADPH Consumption Assay
# Type: biochemical
# cond: human FASN purified from SKBR3 cells; starred symbols
pIC50: −log10 of the molar value.
Hi there, I'd appreciate the recorded pIC50 for every entry that follows.

Go through the items and report each one's pIC50.
1. CCN(C(=O)n1nnn(-c2c(F)cccc2F)c1=O)c1ccc(C(=O)O)cc1
2. CCN(C(=O)n1nnn(-c2ccc([N+](=O)[O-])cc2Cl)c1=O)C1CCCCC1
3. CC(C)(C)OC(=O)C1CCN(C(=O)n2nnn(-c3c(Cl)cccc3Cl)c2=O)CC1
4. CN(C(=O)n1nnn(-c2c(Cl)cccc2Cl)c1=O)c1ccccc1
5. CCN(C(=O)n1nnn(-c2ccc(Br)cc2Br)c1=O)C1CCCCC1

-- reply
["> 7.22", "< 5.00", "5.00 to 6.00", "6.60 to 7.22", "5.00 to 6.00"]

----------
# measured.on: human FASN (Homo sapiens, UniProt P49327)
# Construct: was purified from SKBR3 cells using procedures modified from those in Jayakumar et al; endogenous in cells; host or cells: SKBR3 human breast cancer cells (ATCC); Endogenous enzyme purified by ammonium sulfate precipitation and a mono Q column
# procedure.details: FASN Scintillation Proximity Flashplate Assay
# Assay type: biochemical
# cond: human FASN purified from SKBR3 cells; unstarred symbols
pIC50: −log10 of the molar value.
reported.property: pIC50

Reference set, count: 5
CCN(C(=O)n1nnn(-c2c(F)cccc2F)c1=O)c1cc(C(=O)O)ccc1OCCc1ccccc1 : > 7.82
CC(C)N(C(=O)n1nnn(-c2c(F)cccc2F)c1=O)c1ccc(Cl)c(C(=O)OCc2ccccc2)c1 : > 7.82
CC(C)N(C(=O)n1nnn(-c2c(F)cccc2F)c1=O)c1ccc(C(=O)OCc2ccccc2)cc1F : > 7.82
CCCCOc1ccc(C(=O)O)cc1N(CC)C(=O)n1nnn(-c2c(F)cccc2OC)c1=O : > 7.82
CCN1CCN(c2ccc(N(C(=O)n3nnn(-c4c(F)cccc4F)c3=O)C3CCCCC3)cc2C(=O)O)CC1 : 7.00 to 7.82

For each entry beneath this line, provide reported pIC50.
1. CCN(C(=O)n1nnn(-c2ccccc2OC)c1=O)c1ccc(OC)c(C(=O)OCc2ccccc2)c1
2. CC(C)N(C(=O)n1nnn(-c2c(F)cccc2F)c1=O)c1ccc(C(=O)OCc2ccccc2)cc1Oc1ccccc1
3. CC(C)N(C(=O)n1nnn(-c2c(F)cccc2F)c1=O)c1ccc(NC(=O)OC(C)(C)C)c(C(=O)O)c1

-- reply
["> 7.82", "> 7.82", "> 7.82"]

From: patent US9346769B2
